Tested on: K-562 leukemia
Test: NCI tumour cell line growth inhibition, 48 h
Each entry below lists one item and its recorded TGI value.
quantityName: TGI

# compound, measuredResult
measured = [
    ("COC(=O)C(Cc1c[nH]c2ccccc12)NP(=O)(O)OCC1OC(n2cc(I)c(=O)[nH]c2=O)CC1O (stereo unspecified)", "> 100 µM"),
    ("CC(=O)c1sc(Nc2nnc(-c3ccc(-c4nnc(Nc5nc(C)c(C(C)=O)s5)o4)cc3)o2)nc1C", "> 100 µM"),
    ("NC(=O)C(C(N)=O)=C(O)C(=O)/C=C(\\O)c1ccccc1", "29.9 µM"),
    ("N#CCCN(C(=O)Nc1ccccc1)[C@H]1CCCC[C@@H]1N(C(=O)Nc1ccccc1)c1ccccc1", "> 100 µM"),
    ("CN(C)CC1CCCC/C1=N/OC(=O)c1ccc(Cl)cc1 (stereo unspecified)", "> 100 µM"),
    ("CSc1nc(Nc2cccc(C(F)(F)F)c2)c2c(N)nn(C)c2n1", "> 100 µM"),
    ("CO/N=C(\\COc1ccc2c(c1)oc(=O)c1cc(OC)ccc12)c1ccc(OC)cc1", "> 100 µM"),
    ("Oc1cccnc1[Se]", "> 100 µM"),
    ("CCOC(=O)C(Cc1ccc(CCCC(=O)NCCC(=O)Nc2ccc3nc(C)sc3c2)cc1)C(=O)OCC", "> 100 µM"),
    ("COc1ccc(CC2NCCc3c2[nH]c2ccccc32)cc1 (stereo unspecified)", "> 100 µM"),
    ("CN1C2CCC1CC(=CCOC(c1ccc(F)cc1)c1ccc(F)cc1)C2", "28 µM"),
    ("CCOC(=O)NC(Nc1ccc(S(=O)(=O)Nc2nc(C)cc(C)n2)cc1)(C(=O)OCC)C(F)(F)F (stereo unspecified)", "> 100 µM"),
    ("NNC(=O)c1n[nH]nc1C(=O)NN", "> 100 µM"),
    ("Clc1ccc2[nH]cc(-c3nnnn3-c3ccccc3)c2c1", "> 67.3 µM"),
    ("O=c1[nH]nc(Cc2ccccc2)n1/N=C/c1ccccc1O", "> 100 µM"),
    ("COc1ccc(-c2nc3ccc(-c4nc5ccc(N6CCN(c7ccccc7)CC6)cc5[nH]4)cc3[nH]2)cc1OC", "2.92 µM"),
    ("O=C(/C=C/c1cc2ccccc2o1)N1CCN(c2ccccn2)CC1", "> 100 µM"),
    ("Cc1ccc(/C=C/C(=O)c2sc(-c3nc(C)c(C(=O)/C=C/c4ccc(C)cc4)s3)nc2C)cc1", "> 100 µM"),
    ("O=C(Oc1ccccn1)c1cc2cc(CCl)ccc2oc1=O", "> 100 µM"),
    ("N#Cc1c(N)n(-c2cccc(C(=O)O)c2)c(=O)c2cc([N+](=O)[O-])ccc12", "> 100 µM"),
    ("CC[C@H]1[C@@H]2C=C[C@@H]3[C@H]4C/C=C\\C(=O)NCCC[C@@H]5NC(=O)/C(=C(O)/C=C/[C@@H]4C[C@@H]3[C@H]2C[C@H]1C)C5=O", "4.24 µM"),
]
